target: MAP3K8 (COT) (Homo sapiens, UniProt P41279)
Sequence (P41279 whole entry, species assumed): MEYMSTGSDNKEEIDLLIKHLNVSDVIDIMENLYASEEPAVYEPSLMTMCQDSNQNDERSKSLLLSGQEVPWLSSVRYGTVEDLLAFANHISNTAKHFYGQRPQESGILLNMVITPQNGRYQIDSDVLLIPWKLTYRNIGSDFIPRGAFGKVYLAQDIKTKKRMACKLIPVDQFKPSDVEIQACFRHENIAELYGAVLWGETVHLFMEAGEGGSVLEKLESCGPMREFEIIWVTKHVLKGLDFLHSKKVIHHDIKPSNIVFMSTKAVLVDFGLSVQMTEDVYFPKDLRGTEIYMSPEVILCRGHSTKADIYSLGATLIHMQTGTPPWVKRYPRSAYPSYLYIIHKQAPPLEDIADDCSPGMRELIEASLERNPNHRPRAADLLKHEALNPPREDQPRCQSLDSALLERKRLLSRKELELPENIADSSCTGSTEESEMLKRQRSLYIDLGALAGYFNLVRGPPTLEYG
MEASURE: pIC50
Recall that pIC50 is obtained by taking minus log10 of the concentration measured in molar.

Exercise: State the recorded pIC50 for this entry: C#CCOc1ccc(Nc2ncc(Cl)c(Nc3ccccc3NC(=O)C=C)n2)c(OC)c1 [Compound 6]
Solution: 6.60

* * *

target: FER^WT (Homo sapiens, UniProt P16591); assay: In vitro TR-FRET kinase assay; conditions: log[inhibitor] (M) -10
Sequence (P16591 448-820): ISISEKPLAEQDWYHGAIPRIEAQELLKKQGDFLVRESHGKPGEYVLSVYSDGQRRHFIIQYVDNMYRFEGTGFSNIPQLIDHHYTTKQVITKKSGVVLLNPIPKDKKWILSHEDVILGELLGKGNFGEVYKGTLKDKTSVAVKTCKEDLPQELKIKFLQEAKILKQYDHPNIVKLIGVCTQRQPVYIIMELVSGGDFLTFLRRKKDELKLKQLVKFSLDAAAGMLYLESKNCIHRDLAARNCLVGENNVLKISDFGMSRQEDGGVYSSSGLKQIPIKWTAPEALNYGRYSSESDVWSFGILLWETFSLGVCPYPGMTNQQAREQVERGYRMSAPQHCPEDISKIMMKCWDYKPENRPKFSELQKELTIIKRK
MEASURE: Residual activity (%) WT Mean
Answer format: numeric, % implied, no suffix.

Below: 2 compounds and their reported Residual activity (%) WT Mean.
[[record]]
smiles_record = "CCC(=O)Nc1ccccc1Nc1nc(Nc2ccccc2OC)ncc1Cl"
assay_target = "FER^WT (Homo sapiens, UniProt P16591)"
measure = "Residual activity (%) WT Mean"
recorded_value = 113.972

[[record]]
smiles_record = "COc1ccccc1Nc1ncc(Cl)c(Nc2ccccc2S(=O)(=O)C(C)C)n1"
assay_target = "FER^WT (Homo sapiens, UniProt P16591)"
measure = "Residual activity (%) WT Mean"
recorded_value = 106.348


Exercise: State the recorded Residual activity (%) WT Mean for this entry: `C=CC(=O)Nc1ccccc1Nc1nc(Nc2ccccc2OC)ncc1Cl`
Solution: 107.184

Exercise: What would you report for `C#CCOc1ccc(Nc2ncc(Cl)c(Nc3ccccc3NC(=O)C=C)n2)c(OC)c1` ?
Solution: 105.81

* * *

molecular target: CSK (Homo sapiens, UniProt P41240); test: PamChip microarray peptide phosphorylation; conditions: peptide substrate phosphorylated by CSK
Sequence (P41240 whole entry, the tested form may be a part): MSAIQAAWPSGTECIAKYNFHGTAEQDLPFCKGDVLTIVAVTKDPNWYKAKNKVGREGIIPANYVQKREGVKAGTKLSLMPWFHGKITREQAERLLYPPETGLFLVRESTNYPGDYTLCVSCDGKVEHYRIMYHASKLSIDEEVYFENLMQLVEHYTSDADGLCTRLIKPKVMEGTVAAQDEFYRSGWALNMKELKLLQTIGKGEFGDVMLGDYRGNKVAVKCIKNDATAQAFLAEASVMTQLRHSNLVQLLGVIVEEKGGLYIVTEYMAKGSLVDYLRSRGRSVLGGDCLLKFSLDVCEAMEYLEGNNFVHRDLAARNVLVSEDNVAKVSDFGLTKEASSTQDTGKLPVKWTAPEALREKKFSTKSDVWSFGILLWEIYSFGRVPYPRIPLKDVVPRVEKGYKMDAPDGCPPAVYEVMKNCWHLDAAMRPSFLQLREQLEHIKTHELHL
MEASURE: Relative phosphorylation (% of highest signal)

Exercise: Look up Relative phosphorylation (% of highest signal) with CSK (Homo sapiens, UniProt P41240) for this substance: MBP_259_271 (FGYGGRASDYKSA; UniProt P02686 259-271, looked up, fragment)
Solution: -0.0622 % of highest signal

Exercise: What would you report for EPHA2_581_593 (QLKPLKTYVDPHT; UniProt P29317 581-593, looked up, fragment) ?
Solution: -0.569 % of highest signal

Exercise: What would you report for ODBA_340_352_D340K (KDSSAYRSVDEVN; UniProt P12694 340-352, looked up, variant D340K) ?
Solution: 10.4 % of highest signal

* * *

The reader will find reported Residual activity (%) WT Mean values listed item by item below.
biological target: UniProt P16591; assay: In vitro TR-FRET kinase assay; details: log[inhibitor] (M) -6.52288
Answer format: numeric, % implied, no suffix.

[[record]]
smiles_record = "COc1ccccc1Nc1ncc(Cl)c(Nc2ccccc2S(=O)(=O)C(C)C)n1"
assay_target = "UniProt P16591"
unit_name = "%"
recorded_value = 0.8273

[[record]]
smiles_record = "C=CC(=O)Nc1ccccc1Nc1nc(Nc2ccccc2OC)ncc1Cl"
assay_target = "UniProt P16591"
unit_name = "%"
recorded_value = 38.3519

[[record]]
smiles_record = "C#CCOc1ccc(Nc2ncc(Cl)c(Nc3ccccc3NC(=O)C=C)n2)c(OC)c1"
assay_target = "UniProt P16591"
unit_name = "%"
recorded_value = 25.7365


Below: the item to evaluate.
Exercise: State the recorded Residual activity (%) WT Mean for this entry: `CCC(=O)Nc1ccccc1Nc1nc(Nc2ccccc2OC)ncc1Cl`
Solution: 74.3812
